Value source: patent US20080220031A1

experiment: Oxidation test squalene test (Raman, azo initiator V65); settings: 2500 ppm test substance, azo initiator V65, 30 days at 40° C., squalene content by Raman spectrum
In this section we review reported Qraman (slope of reference sample divided by slope of test substance sample) values for a set of molecules.
PARAMETER_MEASURED: Qraman (slope of reference sample divided by slope of test substance sample)

MOLECULE | QUANTITATIVE_READOUT
CCCCCCCCCCCCC1CC(=O)N(C2CC(C)(C)N(C)C(C)(C)C2)C1=O (stereo not shown) | 6.2
CN1C(C)(C)CC(N2CN3C(=O)N4CN(C5CC(C)(C)N(C)C(C)(C)C5)CN5C(=O)N(C2)C3C45)CC1(C)C | 2.2
O=C1O[C@H]([C@@H](O)CO)C(O)=C1O | 1.2
CC1(C)CC(N2CN3C(=O)N4CN(C5CC(C)(C)NC(C)(C)C5)CN5C(=O)N(C2)C3C45)CC(C)(C)N1 | 1.3
CCCCCCCCCCCCC1CC(=O)N(C2CC(C)(C)NC(C)(C)C2)C1=O (stereo not shown) [drawing 31] | 7.1
CC(ON1C(C)(C)CC(O)CC1(C)C)c1ccccc1 (stereo not shown) | 1.3
CCCCCCCCON1C(C)(C)CC(OC(=O)CCCCCCCCC(=O)OC2CC(C)(C)N(OCCCCCCCC)C(C)(C)C2)CC1(C)C | 1.8
COC(=O)C(CO)ON1C(C)(C)CC(OC)CC1(C)C (stereo not shown) | 1.8
CCCCN(c1nc(NCCCN(CCN(CCCNc2nc(N(CCCC)C3CC(C)(C)N(C)C(C)(C)C3)nc(N(CCCC)C3CC(C)(C)N(C)C(C)(C)C3)n2)c2nc(N(CCCC)C3CC(C)(C)N(C)C(C)(C)C3)nc(N(CCCC)C3CC(C)(C)N(C)C(C)(C)C3)n2)c2nc(N(CCCC)C3CC(C)(C)N(C)C(C)(C)C3)nc(N(CCCC)C3CC(C)(C)N(C)C(C)(C)C3)n2)nc(N(CCCC)C2CC(C)(C)N(C)C(C)(C)C2)n1)C1CC(C)(C)N(C)C(C)(C)C1 | 1.4
CN1C(C)(C)CC(N(C=O)CCCCCCN(C=O)C2CC(C)(C)N(C)C(C)(C)C2)CC1(C)C | 2.4
